// data source = PubChem BioAssay (NCI)

Can you tell me TGI for the items I'm about to list?
- Test system: OVCAR-3 ovarian
- Method notes: NCI tumour cell line growth inhibition, 48 h

[ask] Reported TGI for OVCAR-3 ovarian, given CN(C)Cc1cc(C(F)(F)F)ccc1C(O)(c1ccccc1)c1ccccc1 ?
[reply] > 100 µM

[ask] Another molecule: Cc1ccc(S(=O)(=O)Nc2cccc3c(=O)[nH]cnc23)cc1
[reply] > 100 µM

[ask] Another molecule: O=C(O)c1c2c(cc3c1CC(Cc1ccccc1)C3=O)CCC2 (stereo unspecified)
[reply] > 100 µM

[ask] Another molecule: Nn1c(C23CC4CC(CC(C4)C2)C3)n[nH]c1=S
[reply] > 100 µM

[ask] Another molecule: O=S(=O)(O)c1ccc(N=Nc2ccc3c(S(=O)(=O)O)cccc3c2O)c2ccccc12
[reply] > 100 µM

[ask] Another molecule: O=C1OC(CCCN2CCCCC2)(c2ccccc2)CC12CCCC2 (stereo unspecified)
[reply] > 100 µM

[ask] Another molecule: COc1ccc(Cn2c3c(cc(OC(C)=O)c2=O)Cc2ccccc2-3)cc1
[reply] > 50 µM

[ask] Another molecule: O=C1C2=Cc3ccccc3OC2(O)Oc2cc3ccccc3cc21 (stereo unspecified)
[reply] > 100 µM

[ask] Another molecule: CCN1C[C@]2(C)CC[C@H](O)C34C1C(C[C@@H]32)[C@@]1(O)CC[C@H]2C[C@@H]4[C@@H]1[C@H]2O
[reply] > 100 µM

[ask] Another molecule: COC(=O)C(=O)CC(=O)CCn1[nH]c(=O)c(Cl)c(Cl)c1=O
[reply] > 100 µM

[ask] Another molecule: S=C(N/N=C/c1ccccn1)N1CCCCC1
[reply] 26.4 µM

[ask] Another molecule: CC(C)(C)C1=C(Br)C(C(C)(C)C)OP1(=O)O (stereo unspecified)
[reply] > 100 µM

[ask] Another molecule: COc1ccc(Cn2c(=O)c(OC)c(C)c3cc4ccccc4cc32)cc1
[reply] > 100 µM

[ask] Another molecule: CCC(CC)NC1=C(NC(C)=O)C(=O)c2ccccc2C1=O
[reply] > 50 µM

[ask] Another molecule: CNC(=O)OCc1c(COC(=O)NC)c(-c2ccc(-c3ccccc3)cc2)n(C)c1C
[reply] 7.88 µM

[ask] Another molecule: C#CCn1c(=O)c(I)cn(/C(=C/C(=O)OCC)C(=O)OCC)c1=O
[reply] 3.37 µM

[ask] Another molecule: C=C(C)[C@@H]1CC[C@]2(COCCCN)CC[C@]3(C)[C@H](CC[C@@H]4[C@@](C)(CCCNCCCN)[C@H](C(=C)C)CC[C@]43C)[C@@H]12
[reply] 3.36 µM

[ask] Another molecule: CNC(=O)OCc1nc(SSC(C)(C)C)n(C)c1COC(=O)NC
[reply] 4.81 µM

[ask] Another molecule: Cc1cc(Cl)ccc1OCC(=O)Nc1nc2c(Cl)cccc2s1
[reply] 93.8 µM

[ask] Another molecule: C/C(=N\NS(=O)(=O)c1ccc(C)cc1)c1ccccn1
[reply] > 100 µM

[ask] Another molecule: CC(=O)OCC1OC(N2C(C)=C(C(C)=O)C(c3ccc(Cl)cc3)C(C#N)=C2S)C(OC(C)=O)C(OC(C)=O)C1OC(C)=O (stereo unspecified)
[reply] > 100 µM

###

- Test system: NCI-H226 lung
- Method notes: NCI tumour cell line growth inhibition, 48 h
Can you tell me TGI for the items I'm about to list?

[ask] Reported TGI for NCI-H226 lung, given O=S(=O)(C1=CC(S(=O)(=O)c2ccccc2)CN(Cc2ccccc2)C1c1cccc2ccccc12)c1ccccc1 (configuration not stated) ?
[reply] > 69 µM

[ask] Another compound: CC(C)NC(=O)OCc1c2c(n(C)c1COC(=O)NC(C)C)-c1cc(Cl)c(Cl)cc1CC2
[reply] > 100 µM

[ask] Another compound: COc1ccc(-c2c(C(C)=O)c(-c3ccccc3)n(C3OC(CO)C(O)C(O)C3O)c(=S)c2C#N)cc1 (configuration not stated)
[reply] > 100 µM

[ask] Another compound: OC(CC1CCCCN1)c1ccc2c(c1)oc1ccccc12 (configuration not stated)
[reply] > 100 µM

[ask] Another compound: OC(CNc1ccccn1)c1ccccc1 (configuration not stated)
[reply] > 100 µM

[ask] Another compound: CCC(CC)NC1=C(NC(C)=O)C(=O)c2ccccc2C1=O
[reply] > 50 µM

[ask] Another compound: CNC(=O)OCc1nc(SSC(C)(C)C)n(C)c1COC(=O)NC
[reply] 28.3 µM

[ask] Another compound: CC(=O)OCC1OC(N2C(C)=C(C(C)=O)C(c3ccc(Cl)cc3)C(C#N)=C2S)C(OC(C)=O)C(OC(C)=O)C1OC(C)=O (configuration not stated)
[reply] > 100 µM

[ask] Another compound: C=CC[C@]1(/C=N/O)CN(S(=O)(=O)CC[Si](C)(C)C)C[C@H]2CC=CC[C@H]21
[reply] 34.4 µM

[ask] Another compound: O=C(NC1=C(Cl)C(=O)c2ccccc2C1=O)c1ccccc1
[reply] 69 µM

[ask] Another compound: O=C(Nc1ccc(Cl)cc1)C1C(=O)C(=O)N(c2ccc(Cl)cc2)C1=O (configuration not stated)
[reply] > 100 µM

[ask] Another compound: CC12C=CC(C)(C3C(=O)C4C(C(=O)C31)C1(C)C=CC4(C)S1=O)S2=O (configuration not stated)
[reply] > 100 µM

[ask] Another compound: N#Cc1ccc(-c2nc3c(N)ncnc3o2)cc1
[reply] > 100 µM

[ask] Another compound: NC1=NN(c2ccccc2)C(=O)C1C(=O)CCC(=O)Nc1cccc(Cl)c1 (configuration not stated)
[reply] > 100 µM

[ask] Another compound: O=C(NC(=O)c1c(F)cccc1F)Nc1cccc(Oc2ncc(Cl)cn2)c1
[reply] > 100 µM

[ask] Another compound: O=C1/C(=C\c2ccc([N+](=O)[O-])cc2)N(S(=O)(=O)c2ccccc2)c2ncccc21
[reply] 83.5 µM

[ask] Another compound: COc1ccc2c(c1)/C(=C\c1c(Cl)[nH]c3cc(C)c(OC)cc13)C(=O)N2
[reply] > 100 µM

[ask] Another compound: C=CC[P@]1(=O)O[C@H](c2ccccc2)[C@H](C)N1C
[reply] > 100 µM

[ask] Another compound: CN(C)CCC(=O)N1C/C(=C\c2ccc(Cl)c(Cl)c2)C(=O)/C(=C/c2ccc(Cl)c(Cl)c2)C1
[reply] 1.86 µM

[ask] Another compound: COc1cc2c(cc1OCCCCCCCCCCN1C(=O)c3cccc4cccc(c34)C1=O)N=C[C@@H]1CCCN1C2=O
[reply] 5.25 µM

[ask] Another compound: NC(CCCC(N)P(=O)(O)O)P(=O)(O)O (configuration not stated)
[reply] > 100 µM

[ask] Another compound: N[C@H](C(=O)O)[C@@H]1CC(Cl)=NO1
[reply] > 316 µM

[ask] Another compound: CC1(C)N=C(N)N=C(N)N1c1ccc(CCC(=O)Nc2ccc(S(=O)(=O)F)cc2)c(Cl)c1
[reply] > 100 µM

[ask] Another compound: COc1ccc2nc(N/N=C/c3sccc3C)cc(C)c2c1
[reply] 42.6 µM

[ask] Another compound: O=C1NC(=S)N/C1=C\c1cccs1
[reply] > 100 µM

[ask] Another compound: CS(=O)(=O)CCNCc1coc(-c2ccc3ncnc(Nc4ccc(OCc5ccccc5)cc4)c3c2)c1
[reply] > 25 µM

[ask] Another compound: O=C1CS(=O)(=O)C(c2cccc(Oc3ccccc3)c2)N1c1ccc(Cl)cc1 (configuration not stated)
[reply] 68.3 µM

[ask] Another compound: O=C1C=C(Nc2ccccc2C(=O)CC(=O)C(=O)Nc2cccc([N+](=O)[O-])c2)c2ccccc2C1=O
[reply] > 100 µM

[ask] Another compound: CC1(O)C(C)(O)C2(C)O[Te]3(OC12C)OC1(C)C(C)(O)C(C)(O)C1(C)O3 (configuration not stated)
[reply] 89.2 µM

[ask] Another compound: ONC1=Nc2cc(Cl)ccc2C(=S)N2CSCC12 (configuration not stated)
[reply] > 100 µM

[ask] Another compound: CCCCCCNCCc1cnc[nH]1
[reply] > 100 µM

[ask] Another compound: CC1(C)C2CCC1(C)C(N/C(Sc1ccccc1)=C(/C(Cl)=C(Cl)Cl)[N+](=O)[O-])C2 (configuration not stated)
[reply] 31.1 µM

[ask] Another compound: CC1=C2C(O)C(C(C)C(=O)N(C)C)CCC2(C)C=CC1=O (configuration not stated)
[reply] > 100 µM

[ask] Another compound: NC(=Nc1ccccc1Cl)c1ccccc1N
[reply] > 100 µM

[ask] Another compound: O=[N+]([O-])c1ccc(CSc2nncc3[nH]cnc23)cc1
[reply] > 100 µM

[ask] Another compound: CCCOC(=O)N[C@H]1CCc2c(Cl)c(OC)c(OC)c(OC)c2-c2ccc(SC)c(=O)cc21
[reply] 12.5 µM

[ask] Another compound: O=C1C=C(C2OC(CO)C(O)C2O)C(=O)N1 (configuration not stated)
[reply] > 100 µM

[ask] Another compound: CNc1ncccc1Nc1cc(=O)n2c3cccnc3n(C)c2c1
[reply] > 100 µM

[ask] Another compound: CCN1C(=O)c2ccc3c4c(ccc(c24)C1=O)C(=O)N(CCCNCc1ccccc1OC)C3=O
[reply] 2.77 µM

[ask] Another compound: CN(C)CCOc1ccc([N+](=O)[O-])c2cccnc12
[reply] > 100 µM

[ask] Another compound: CC1(C)[C@@H]2CC[C@]1(C)[C@H](OC(=O)CSC#N)C2
[reply] > 100 µM

[ask] Another compound: O=C(O)CCCc1ccc2ccc3ccccc3c2c1
[reply] > 100 µM
